- Protocol Text: Solubility of meloxicam in simulated gastric fluid pH 1.2
- Assay type: physicochemical
- Conditions Used: simulated gastric fluid, pH 1.2, simulated gastric fluid, thermodynamic from solid, pH 1.2, with the metal silicate alone
Readout: solubility at 72 h

q: Consider the compound shown here: Cc1cnc(NC(=O)C2=C(O)c3ccccc3S(=O)(=O)N2C)s1 What is its recorded solubility at 72 h?
a: 23 to 41 µg/mL

====

- Protocol Text: Solubility of meloxicam in simulated gastric fluid pH 1.2
- Assay type: physicochemical
- Conditions Used: simulated gastric fluid, pH 1.2, simulated gastric fluid, thermodynamic from solid, pH 1.2, meloxicam alone
Readout: solubility at 72 h (µg/mL)
One number for each entry, in µg/mL.

q: Consider the molecule shown here: Cc1cnc(NC(=O)C2=C(O)c3ccccc3S(=O)(=O)N2C)s1 What is its recorded solubility at 72 h?
a: 7
